Known superoxide response (% of plate) of a selection of compounds
Test: calorie-restriction mimetic ROS inhibitors, yeast – validation compound set, pilot screen (AID 2706);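 also: yeast exposed to compound for one week at 30 degrees C before staining; 100% = mean of all compound wells on the same plate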
Conditions: S. cerevisiae aging, superoxide DHE fluorescence; at 10 µM; stronger effect = lower value
endpoint_label: superoxide response (% of plate) (%)

compound	endpoint_label	value_observed
CCC(NC(C)C)C(O)c1ccc(O)c(O)c1 (stereo not given)	superoxide response (% of plate)	86.8
O=C1Cc2ccccc2C(c2ccccc2)N1 (stereo not given)	superoxide response (% of plate)	112
O=C1C(Cc2ccccc2)NC(=S)N1c1ccccc1 (stereo not given)	superoxide response (% of plate)	98.2
CC(=O)[C@H]1CC[C@H]2[C@@H]3C[C@H](C)C4=CC(=O)CC[C@]4(C)[C@H]3[C@@H](O)C[C@]12C	superoxide response (% of plate)	95.6
O=c1nc2sc3ccccc3n2c(=O)n1-c1ccc(Cl)cc1	superoxide response (% of plate)	110
O=C(Nc1ncc2c(n1)CC(c1ccco1)CC2=O)c1ccco1 (stereo not given)	superoxide response (% of plate)	102
Cc1cccc2c(C(=O)O)cc(-c3cccnc3)nc12	superoxide response (% of plate)	102
CCOc1ccc2ccccc2c1C(=O)N[C@@H]1C(=O)N2[C@@H]1SC(C)(C)[C@@H]2C(=O)O	superoxide response (% of plate)	108
CC1(C)O[C@@H]2C[C@H]3[C@@H]4C[C@H](F)C5=CC(=O)C=C[C@]5(C)[C@@]4(F)[C@@H](O)C[C@]3(C)[C@]2(C(=O)CO)O1	superoxide response (% of plate)	103
Cc1oc2c(O)c(O)ccc2c(=O)c1-c1ccccc1	superoxide response (% of plate)	110
CCCCOc1ccc(CC(=O)NO)cc1	superoxide response (% of plate)	121
Nc1cnn(C2OC(CO)C(O)C2O)c(=O)n1 (stereo not given)	superoxide response (% of plate)	99.1
Cn1c(=O)c2c(ncn2CCO)n(C)c1=O	superoxide response (% of plate)	98.5
Cc1ccc2c(c1)C(O)(C1COC(C)(C)CC1=O)C(=O)N2C (stereo not given)	superoxide response (% of plate)	103
Cc1cc(OCC(=O)C(C)(C)C)c2c(C)c(C)c(=O)oc2c1	superoxide response (% of plate)	102
CCOC(=O)[C@H]1O[C@@H]1C(=O)N[C@@H](CC(C)C)C(=O)NCCC(C)C	superoxide response (% of plate)	97
CCCCC(=O)O[C@H]1CC[C@H]2[C@@H]3CCc4cc(O)ccc4[C@H]3CC[C@]12C	superoxide response (% of plate)	93.8
COc1ccc(C2CC(c3ccc([N+](=O)[O-])cc3)=NN2C(=O)c2ccccc2)cc1OC (stereo not given)	superoxide response (% of plate)	79.1
COC(=O)c1cc(COc2ccc3ccc(=O)oc3c2)c(C)o1	superoxide response (% of plate)	108
C#CCN1C(=O)C(O)(c2c(C)[nH]c3ccccc23)c2ccccc21 (stereo not given)	superoxide response (% of plate)	96.9
Cc1cnc(N)c2c(=O)oc3ccccc3c12	superoxide response (% of plate)	98.8
CCn1c(/C=C/c2ccccc2)nc2ccccc2c1=O	superoxide response (% of plate)	102
C1CCC(C(CC2CCCCN2)C2CCCCC2)CC1 (stereo not given)	superoxide response (% of plate)	119
CCN(CC)C(=O)c1sc(NC(=O)c2c(OC)cccc2OC)c(C#N)c1C	superoxide response (% of plate)	95.2
CN(C)CCC(c1ccc(Cl)cc1)c1ccccn1 (stereo not given)	superoxide response (% of plate)	94
NS(=O)(=O)c1cc2c(cc1C(F)(F)F)NC(Cc1ccccc1)NS2(=O)=O (stereo not given)	superoxide response (% of plate)	85
C[N+]1(C2CCC3CCCC2C3O)CCCCC1 (stereo not given)	superoxide response (% of plate)	94.2
Cc1ccc2c(c1)c(=O)c1c3n2CCN(C(=O)CCl)C3CC1 (stereo not given)	superoxide response (% of plate)	108
CCN(CC)CCNC(=O)c1cc(Cl)c(N)cc1OC	superoxide response (% of plate)	104
COc1ccc(CCNC(=O)c2ccc(Cl)cc2)cc1OC	superoxide response (% of plate)	107
CN(C)CCOC(c1ccccc1)c1ccccc1 (tested in a mixture with another compound)	superoxide response (% of plate)	91.9
CC(C)CN(C)Cc1c(C(=O)N2CCc3ccccc3C2)nc2ccc(Cl)cn12	superoxide response (% of plate)	99.2
C[C@H](CCC(=O)O)[C@H]1CC[C@H]2[C@@H]3C(=O)C[C@@H]4CC(=O)CC[C@]4(C)[C@H]3CC(=O)[C@]12C	superoxide response (% of plate)	95.4
CC(=O)Oc1cc2oc(=O)cc(C)c2cc1OC(C)=O	superoxide response (% of plate)	102
COc1cc(C(=O)CCN2CCC(c3ccccc3)C2)cc(OC)c1OC (stereo not given)	superoxide response (% of plate)	117
CC(=O)Oc1ccc(C(c2ccc(OC(C)=O)cc2)c2ccccn2)cc1	superoxide response (% of plate)	105
COc1ccccc1N=CC1=C(O)CC(c2ccccc2)CC1=O (stereo not given)	superoxide response (% of plate)	95.6
CC(C)(C)N(Cc1ccccc1)C(=O)c1ccc(Br)o1	superoxide response (% of plate)	101
COC(=O)c1ccc(C(=O)OC)c(NC(=O)C(C)C)c1	superoxide response (% of plate)	100
CC(C)=CCC/C(C)=C/CC/C(C)=N/O	superoxide response (% of plate)	97.4
O=C(O)CCCCCN1C(=O)C(=O)/C(=C(/O)c2ccccc2)C1c1ccccc1 (stereo not given)	superoxide response (% of plate)	103
Fc1ccc(NC(=S)Nc2ccccc2Cl)cc1	superoxide response (% of plate)	91.9
c1ccc(-c2ccc(C(c3ccccc3)n3ccnc3)cc2)cc1 (stereo not given)	superoxide response (% of plate)	209
CC1(C)CC(c2csc(N)n2)CCO1 (stereo not given)	superoxide response (% of plate)	101
CN(C)CCN(Cc1ccccc1)c1ccccn1	superoxide response (% of plate)	95.6

###

Assay: yeast AGP1-GFP level changes, GLN3 branch – cell-based, multiplex flow cytometry, S. cerevisiae, primary screen (AID 1887);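 also: AGP1-GFP fusion strain of S. cerevisiae within a five-strain barcoded multiplex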
Settings: 3 h, at 10 µM, stronger effect = higher value
Records with an inconclusive call do not appear.
Listed next: entries and their corresponding GFP response, % of DMSO.

compound	GFP response, % of DMSO [%]
CC(=O)N1CCn2c3c(c4cc(C)ccc42)CCCC31 (stereo unspecified)	111
CC1=C(C)C(=O)C(CCCCC#CCCCC#CCO)=C(C)C1=O	107
CC(=O)c1cc2c(cc1NC(=O)c1ccco1)OCCO2	110
COc1ccc(NC(=O)C2CCCN2C(=O)OC(C)(C)C)cc1 (stereo unspecified)	99.9
COc1cc(CNCCc2ccccc2F)ccc1OCC(=O)N1CCCCC1	100
O=C(O)C1[C@H]2C(=O)N(C3CCCC3)C[C@]23C=C[C@H]1O3 (stereo partly specified)	113
COCC(C)NC(=O)c1ccc(CN2CCc3ccccc3C2)cc1 (stereo unspecified)	92.6
CC(C)c1ccc(NC(=O)CNS(=O)(=O)c2ccc(F)cc2)cc1	102
CC(=O)c1c[nH]c2ccc(C)cc2c1=O	94.9
CC(C)COCC1CC2(CC(C)(c3csc(N)n3)OC2=O)C(=O)O1 (stereo unspecified)	102
C[C@]12CCC3C(CC=C4C[C@@H](O)CC[C@@]43C)C1CCC2[C@]1(C)CCC(=O)O1 (stereo partly specified)	95.7

###

Experiment: cytosolic pH regulators acting via V-ATPase – S. cerevisiae, pHLuorin, HTS validation (AID 504600);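 also: plate controls were DMSO for no effect and reference compound for full effect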
Conditions: V-ATPase proton transport, at 10 µM, stronger effect = higher value

compound	response / %
O=C(N/N=C\c1cc([N+](=O)[O-])ccc1N1CCOCC1)c1ccccn1	4.27
CN1C(=O)NC(c2ccc(O)cc2)C2=C1CN(c1cccc3ccccc13)C2=O (stereo unspecified)	-0.13
COc1ccc(C(C)=O)c2c1OCCO2	0.17
O=c1cc(CN2CCN(c3cccc(Cl)c3)CC2)c2cc(O)c(-c3ccccc3)cc2o1	-1.13
NS(=O)(=O)c1cc2c(cc1Cl)NC(C(Cl)Cl)NS2(=O)=O (stereo unspecified)	2.72
CC1=NS(=O)(=O)c2cc(Cl)ccc2N1	-1.96
CCC(=O)c1ccc(OCc2ccc(C(=O)OC)cc2)cc1	23.8
CC(C)CN1CCN(Cc2ccc(C#CC(C)(C)O)cc2)CC1CCO (stereo unspecified)	-6.34
O=c1c2ccccc2nc2n1CCCN2	-1.39
Cc1ccc(NC(=O)CSc2nc(O)c(Cc3ccccc3)c(=O)n2-c2ccccc2)cc1	-1.44
O=C1OC(c2ccccc2)=C/C1=C/c1cccs1	-2.38

###

Assay: TOR pathway GLN3 branch reporter MEP2-GFP changes – S. cerevisiae, multiplex flow cytometry, primary screen (AID 1867);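 also: median GFP channel fluorescence of barcode-gated MEP2-GFP cells measured by flow cytometry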
Details: S. cerevisiae MEP2-GFP strain, 3 h, at 10 µM, 100% means same as DMSO wells
Records with an inconclusive call do not appear. Calls of active or inactive are those of the source.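 Rule for the calls: active = GFP response, as percent of the DMSO control, above the screen-wide mean plus 3 SD, about 139; inconclusive = no response measured because the compound's own fluorescence interfered; inactive = the rest.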
Outcomes: 1 for active, -1 for inactive

compound	class_assignment
O=C(Cc1ccccc1)NNC(=O)Cc1ccccc1	-1
COc1ccc(OC)c(C(=O)c2coc3ccc(O)cc23)c1	-1
C[N+](C)(C)CCOP(=O)([O-])OC[C@H](O)CO	-1
Cc1nc2ccccc2n1CC(O)Cn1c2ccccc2c2ccccc21 (stereo unspecified)	-1
CNCCC(Oc1ccc(C(F)(F)F)cc1)c1ccccc1 (stereo unspecified)	1
COc1ccc(Cc2noc(CN(C)CCN3CCc4ccccc4C3)n2)cc1OC	-1
COc1ccc2oc(-c3ccco3)cc(=O)c2c1	-1
CC1(C)C(=O)OC(/C=C\c2ccccc2)C(C)(C)C1=O (stereo unspecified)	-1
COc1cc(C(=O)NCCc2c[nH]c3ccccc23)ccc1OCc1c(C)noc1C	-1
CC12CN3CC(C)(CN(C1)C3c1ccc([N+](=O)[O-])o1)C2 (stereo unspecified)	-1
CC(=O)N1CCN(c2ccc(OC[C@H]3CO[C@](Cn4ccnc4)(c4ccc(Cl)cc4Cl)O3)cc2)CC1	-1
